Taken from patent US6284914A.

# target of assay: collagenase (MMP-1) (Homo sapiens, UniProt P03956)
# Construct: endogenous in cells; host or cells: human fibroblast
# Sequence (P03956 100-469): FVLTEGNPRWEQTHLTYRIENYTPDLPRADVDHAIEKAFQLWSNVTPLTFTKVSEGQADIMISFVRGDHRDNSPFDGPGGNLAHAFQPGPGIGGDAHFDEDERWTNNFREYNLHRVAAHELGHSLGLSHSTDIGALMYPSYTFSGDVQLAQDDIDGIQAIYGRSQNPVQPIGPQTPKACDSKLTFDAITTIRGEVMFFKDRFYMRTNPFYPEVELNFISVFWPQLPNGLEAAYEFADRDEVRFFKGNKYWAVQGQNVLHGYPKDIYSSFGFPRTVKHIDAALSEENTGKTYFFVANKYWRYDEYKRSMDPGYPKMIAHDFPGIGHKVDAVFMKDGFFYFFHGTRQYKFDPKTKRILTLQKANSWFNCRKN
# assay details: Assay for Collagenase Inhibitory Activity (MMP-1)
# Format: biochemical
Counter-ions that a name gives are not always drawn.
metric name: IC50 (nM)
Give bare numbers, in nM.

Ask: # input molecule: CNC(=O)[C@H](Cc1ccc(OP(=O)(O)O)cc1)NC(=O)C(CC(=O)NO)CC(C)C (single isomer, unassigned) [Example 9, Disodium Salt] ; wanted: its IC50
Reply: 17

---

# assay details: Measurement of Solubility in Water
# Format: physicochemical
# condition context: water, distilled water, 20±5° C., 30 min., checked by eye
Counter-ions that a name gives are not always drawn.
metric name: solubility at 0.5 h

Sample answers from the record:
Ask: # input compound: CNC(=O)[C@H](Cc1cccc(OS(=O)(=O)O)c1)NC(=O)[C@H](CC(C)C)C(CCCc1ccccc1)C(=O)NO (single isomer, unassigned) [Example 15, Monosodium Salt] ; wanted: its solubility at 0.5 h
Reply: 120 mg/mL

Ask: # input compound: CNC(=O)[C@H](Cc1ccc(OS(=O)(=O)O)cc1)NC(=O)[C@H](CC(C)C)C(CCCc1ccccc1)C(=O)NO (single isomer, unassigned) [Example 3 (Isomer A), Monosodium Salt] ; wanted: its solubility at 0.5 h
Reply: > 100 mg/mL

Ask: # input compound: CCCOC[C@H](C(=O)N[C@@H](Cc1ccc(OC)cc1)C(=O)NC)[C@H](CSC(C)C)C(=O)NO [Comparative Compound 4, reference compound] ; wanted: its solubility at 0.5 h
Reply: < 1 mg/mL

Okay, here is my list. What is solubility at 0.5 h for each of these?
1. CNC(=O)[C@H](Cc1ccc(OS(=O)(=O)O)cc1)NC(=O)C(CC(=O)NO)CC(C)C (single isomer, unassigned) [Example 1 (Isomer A), Monosodium Salt]
2. CNC(=O)[C@H](Cc1ccc(S(=O)(=O)O)cc1)NC(=O)[C@H](CC(C)C)C(CSc1cccs1)C(=O)NO (single isomer, unassigned) [Example 5 (Isomer A), Monosodium Salt]
3. CNC(=O)[C@H](Cc1ccc(S(=O)(=O)O)cc1)NC(=O)[C@H](CC(C)C)C(CCCc1ccccc1)C(=O)NO (stereo partly drawn) [Example 4, Monosodium Salt]
4. COc1ccc(NC(=O)[C@H](Cc2ccc(OS(=O)(=O)O)cc2)NC(=O)[C@H](CC(C)C)C(CCCc2ccccc2)C(=O)NO)cc1 (stereo partly drawn) [Example 7, Monosodium Salt]
5. CNC(=O)[C@H](Cc1ccc(OC)cc1)NC(=O)[C@@H](CC(=O)NO)CC(C)C [Comparative Compound 1, reference compound]
6. CNC(=O)[C@H](Cc1ccc(NC(=N)N)cc1)NC(=O)[C@H](CC(C)C)C(CCCc1ccccc1)C(=O)NO (single isomer, unassigned)
7. CNC(=O)[C@H](Cc1ccccc1)NC(=O)[C@H](CC(C)C)[C@H](CSc1cccs1)C(=O)NO [Comparative Compound 3, reference compound]
8. CNC(=O)[C@H](Cc1ccc(S(=O)(=O)O)cc1)NC(=O)C(CC(=O)NO)CC(C)C (stereo partly drawn) [Example 2, Monosodium Salt]

Reply:
1. > 240 mg/mL
2. > 320 mg/mL
3. 150 mg/mL
4. 100 mg/mL
5. < 1 mg/mL
6. 30 mg/mL
7. < 1 mg/mL
8. > 250 mg/mL

Ask: # input compound: CNC(=O)[C@H](Cc1ccc(O)cc1)NC(=O)[C@H](CC(C)C)[C@H](CCCc1ccccc1)C(=O)NO [Comparative Compound 2, reference compound] ; wanted: its solubility at 0.5 h
Reply: < 1 mg/mL
